systemName: MAST1 (human)
procedureDetails: KINOMEscan competition binding
condition: compound 1.0 µM
property: kinase still bound, per cent of control (%)
Numbers only, in %.

1. CN(C)C/C=C/C(=O)Nc1cccc(C(=O)Nc2ccc(Nc3nccc(-c4cccnc4)n3)cc2)c1 77
2. CN(C)C/C=C/C(=O)Nc1cccc(C(=O)Nc2ccc(Nc3nccc(/C(C#N)=C4\Nc5ccccc5S4)n3)cc2)c1 100
3. CN(C)C/C=C/C(=O)Nc1cccc(C(=O)Nc2ccc(Nc3nccc(-c4c(-c5ccccc5)nn5ccccc45)n3)cc2)c1 99

# ---- query compound ----
// recorded kinase still bound, per cent of control for `Cc1cc(NC(=O)c2cccc(NC(=O)/C=C/CN(C)C)c2)ccc1Nc1nccc(-c2cccnc2)n1` : 97

* * *

systemName: UniProtKB O14578
Sequence (O14578 whole entry, looked up): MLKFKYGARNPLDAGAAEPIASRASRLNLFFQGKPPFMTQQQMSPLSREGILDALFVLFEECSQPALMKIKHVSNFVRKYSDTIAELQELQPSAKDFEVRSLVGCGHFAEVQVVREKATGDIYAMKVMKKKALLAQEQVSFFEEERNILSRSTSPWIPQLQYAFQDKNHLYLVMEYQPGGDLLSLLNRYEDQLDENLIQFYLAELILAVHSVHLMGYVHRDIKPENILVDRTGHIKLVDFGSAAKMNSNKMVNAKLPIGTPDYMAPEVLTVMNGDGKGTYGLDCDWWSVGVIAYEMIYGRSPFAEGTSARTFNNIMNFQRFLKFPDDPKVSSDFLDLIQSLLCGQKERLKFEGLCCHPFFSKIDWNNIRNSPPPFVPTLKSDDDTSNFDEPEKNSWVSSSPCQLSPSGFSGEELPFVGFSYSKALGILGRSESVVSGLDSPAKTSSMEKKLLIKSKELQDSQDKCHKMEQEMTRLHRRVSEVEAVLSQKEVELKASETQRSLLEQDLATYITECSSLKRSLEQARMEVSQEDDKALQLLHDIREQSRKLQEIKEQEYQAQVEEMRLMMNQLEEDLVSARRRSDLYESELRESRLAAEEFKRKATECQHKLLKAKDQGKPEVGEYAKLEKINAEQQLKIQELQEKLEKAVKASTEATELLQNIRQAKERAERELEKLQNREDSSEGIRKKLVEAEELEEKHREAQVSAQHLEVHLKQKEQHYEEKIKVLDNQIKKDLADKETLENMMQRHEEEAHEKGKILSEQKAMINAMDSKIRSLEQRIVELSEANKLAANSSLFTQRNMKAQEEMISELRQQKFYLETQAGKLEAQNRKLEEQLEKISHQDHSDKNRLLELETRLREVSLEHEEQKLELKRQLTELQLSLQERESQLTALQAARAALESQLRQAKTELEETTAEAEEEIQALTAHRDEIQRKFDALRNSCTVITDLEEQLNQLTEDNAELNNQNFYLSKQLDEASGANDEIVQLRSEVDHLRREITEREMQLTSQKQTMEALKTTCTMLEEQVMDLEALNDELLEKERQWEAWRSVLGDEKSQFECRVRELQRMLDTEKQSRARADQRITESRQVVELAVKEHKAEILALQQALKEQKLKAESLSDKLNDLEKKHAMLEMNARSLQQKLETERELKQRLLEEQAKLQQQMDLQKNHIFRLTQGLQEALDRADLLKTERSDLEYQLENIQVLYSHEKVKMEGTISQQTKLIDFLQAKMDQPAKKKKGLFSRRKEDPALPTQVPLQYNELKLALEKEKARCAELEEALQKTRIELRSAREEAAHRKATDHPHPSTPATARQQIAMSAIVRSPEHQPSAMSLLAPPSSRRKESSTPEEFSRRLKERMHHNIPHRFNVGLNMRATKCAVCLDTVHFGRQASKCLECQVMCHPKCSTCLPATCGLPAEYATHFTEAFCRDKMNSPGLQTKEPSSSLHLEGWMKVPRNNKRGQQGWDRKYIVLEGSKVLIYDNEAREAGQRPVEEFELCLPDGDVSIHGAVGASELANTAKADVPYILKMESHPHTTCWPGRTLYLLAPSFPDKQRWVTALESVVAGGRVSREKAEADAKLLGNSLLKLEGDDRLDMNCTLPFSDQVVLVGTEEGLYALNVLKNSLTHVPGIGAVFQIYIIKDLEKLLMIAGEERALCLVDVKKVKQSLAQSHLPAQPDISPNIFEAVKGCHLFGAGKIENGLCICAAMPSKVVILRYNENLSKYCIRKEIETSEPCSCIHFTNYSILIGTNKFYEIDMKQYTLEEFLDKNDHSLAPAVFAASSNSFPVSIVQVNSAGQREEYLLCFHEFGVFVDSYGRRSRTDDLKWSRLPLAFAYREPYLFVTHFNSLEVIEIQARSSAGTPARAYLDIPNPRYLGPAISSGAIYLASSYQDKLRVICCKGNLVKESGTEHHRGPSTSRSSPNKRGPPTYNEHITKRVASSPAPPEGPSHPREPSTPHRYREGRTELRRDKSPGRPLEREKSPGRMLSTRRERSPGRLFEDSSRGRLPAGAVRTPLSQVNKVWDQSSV
property: pKd
One number for each entry, as −log10 of the molar value.

// recorded pKd for `CN(C)C/C=C/C(=O)Nc1cccc(C(=O)Nc2ccc(Nc3nccc(-c4c(-c5ccccc5)nn5ccccc45)n3)cc2)c1` : 7.02

* * *

System: FLT3 (human), P36888 [R834Q]
procedureDetails: KINOMEscan competition binding
condition: compound 1.0 µM
property: kinase still bound, per cent of control (%)
Answers are plain numbers, in %.

1) Cc1cc(NC(=O)c2cccc(NC(=O)/C=C/CN(C)C)c2)ccc1Nc1nccc(-c2cccnc2)n1 100
2) CN(C)C/C=C/C(=O)Nc1cccc(C(=O)Nc2ccc(Nc3nccc(-c4cccnc4)n3)cc2)c1 74
3) CN(C)C/C=C/C(=O)Nc1cccc(C(=O)Nc2ccc(Nc3nccc(-c4c(-c5ccccc5)nn5ccccc45)n3)cc2)c1 68

# ---- query compound ----
// compound `CN(C)C/C=C/C(=O)Nc1cccc(C(=O)Nc2ccc(Nc3nccc(/C(C#N)=C4\Nc5ccccc5S4)n3)cc2)c1` , assay FLT3 (human), P36888 [R834Q], kinase still bound, per cent of control value: 100

* * *

systemName: CSNK1D (human)
procedureDetails: KINOMEscan competition binding
condition: compound 1.0 µM
Exercise: state measured kinase still bound, per cent of control for each of the compounds provided.
One number for each entry, in %.

1) Cc1cc(NC(=O)c2cccc(NC(=O)/C=C/CN(C)C)c2)ccc1Nc1nccc(-c2cccnc2)n1 18
2) CN(C)C/C=C/C(=O)Nc1cccc(C(=O)Nc2ccc(Nc3nccc(-c4cccnc4)n3)cc2)c1 5.6
3) CN(C)C/C=C/C(=O)Nc1cccc(C(=O)Nc2ccc(Nc3nccc(-c4c(-c5ccccc5)nn5ccccc45)n3)cc2)c1 3.1

// recorded kinase still bound, per cent of control for `CN(C)C/C=C/C(=O)Nc1cccc(C(=O)Nc2ccc(Nc3nccc(/C(C#N)=C4\Nc5ccccc5S4)n3)cc2)c1` : 26

* * *

Exercise: state measured kinase still bound, per cent of control for each of the compounds provided.
Tested on: KIT (human), P10721 [D816H]
Sequence (P10721 whole entry D816H, looked up): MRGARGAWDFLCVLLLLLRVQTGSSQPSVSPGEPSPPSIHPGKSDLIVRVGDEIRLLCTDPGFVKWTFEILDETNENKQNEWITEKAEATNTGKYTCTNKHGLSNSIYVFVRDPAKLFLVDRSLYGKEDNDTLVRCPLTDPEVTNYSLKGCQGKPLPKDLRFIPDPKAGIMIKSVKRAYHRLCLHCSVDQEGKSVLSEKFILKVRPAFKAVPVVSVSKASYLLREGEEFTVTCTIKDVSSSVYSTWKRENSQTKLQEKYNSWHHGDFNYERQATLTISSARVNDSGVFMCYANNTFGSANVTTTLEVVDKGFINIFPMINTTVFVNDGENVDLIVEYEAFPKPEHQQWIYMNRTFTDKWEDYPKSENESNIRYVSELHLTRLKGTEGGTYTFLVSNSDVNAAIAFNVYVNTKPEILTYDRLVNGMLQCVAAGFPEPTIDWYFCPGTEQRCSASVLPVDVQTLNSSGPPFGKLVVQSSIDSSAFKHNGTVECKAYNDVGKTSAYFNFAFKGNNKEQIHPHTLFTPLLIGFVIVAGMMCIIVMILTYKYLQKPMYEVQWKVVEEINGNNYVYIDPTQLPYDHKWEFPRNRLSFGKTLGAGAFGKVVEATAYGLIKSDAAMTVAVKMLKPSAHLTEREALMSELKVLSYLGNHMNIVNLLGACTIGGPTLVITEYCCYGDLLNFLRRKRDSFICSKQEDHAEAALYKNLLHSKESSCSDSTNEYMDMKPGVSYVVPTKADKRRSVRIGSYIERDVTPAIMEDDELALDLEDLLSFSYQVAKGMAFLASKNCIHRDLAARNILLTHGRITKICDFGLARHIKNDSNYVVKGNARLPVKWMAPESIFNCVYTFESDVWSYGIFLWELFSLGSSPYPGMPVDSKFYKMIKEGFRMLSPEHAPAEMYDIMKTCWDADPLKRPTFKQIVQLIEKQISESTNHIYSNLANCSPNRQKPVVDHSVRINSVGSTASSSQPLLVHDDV
procedureDetails: KINOMEscan competition binding
condition: compound 1.0 µM
Give bare numbers, in %.

Here is how some compounds turned out for kinase still bound, per cent of control.
1. CN(C)C/C=C/C(=O)Nc1cccc(C(=O)Nc2ccc(Nc3nccc(-c4cccnc4)n3)cc2)c1 42
2. Cc1cc(NC(=O)c2cccc(NC(=O)/C=C/CN(C)C)c2)ccc1Nc1nccc(-c2cccnc2)n1 68
3. CN(C)C/C=C/C(=O)Nc1cccc(C(=O)Nc2ccc(Nc3nccc(-c4c(-c5ccccc5)nn5ccccc45)n3)cc2)c1 86

# ---- query compound ----
// recorded kinase still bound, per cent of control for `CN(C)C/C=C/C(=O)Nc1cccc(C(=O)Nc2ccc(Nc3nccc(/C(C#N)=C4\Nc5ccccc5S4)n3)cc2)c1` : 100

* * *

systemName: UniProtKB P45985
procedureDetails: KINOMEscan competition binding
condition: compound 1.0 µM
property: kinase still bound, per cent of control (%)
Answers are plain numbers, in %.

Here is how some compounds turned out for kinase still bound, per cent of control.
1. CN(C)C/C=C/C(=O)Nc1cccc(C(=O)Nc2ccc(Nc3nccc(/C(C#N)=C4\Nc5ccccc5S4)n3)cc2)c1 100
2. CN(C)C/C=C/C(=O)Nc1cccc(C(=O)Nc2ccc(Nc3nccc(-c4cccnc4)n3)cc2)c1 78
3. Cc1cc(NC(=O)c2cccc(NC(=O)/C=C/CN(C)C)c2)ccc1Nc1nccc(-c2cccnc2)n1 70

# ---- query compound ----
// recorded kinase still bound, per cent of control for `CN(C)C/C=C/C(=O)Nc1cccc(C(=O)Nc2ccc(Nc3nccc(-c4c(-c5ccccc5)nn5ccccc45)n3)cc2)c1` : 100

* * *

systemName: UniProt:P51617
procedureDetails: KINOMEscan competition binding
condition: compound 1.0 µM
Exercise: state measured kinase still bound, per cent of control for each of the compounds provided.
Answers are plain numbers, in %.

Here is how some compounds turned out for kinase still bound, per cent of control.
1. CN(C)C/C=C/C(=O)Nc1cccc(C(=O)Nc2ccc(Nc3nccc(/C(C#N)=C4\Nc5ccccc5S4)n3)cc2)c1 1.2
2. CN(C)C/C=C/C(=O)Nc1cccc(C(=O)Nc2ccc(Nc3nccc(-c4c(-c5ccccc5)nn5ccccc45)n3)cc2)c1 2
3. CN(C)C/C=C/C(=O)Nc1cccc(C(=O)Nc2ccc(Nc3nccc(-c4cccnc4)n3)cc2)c1 0.1

# ---- query compound ----
// recorded kinase still bound, per cent of control for `Cc1cc(NC(=O)c2cccc(NC(=O)/C=C/CN(C)C)c2)ccc1Nc1nccc(-c2cccnc2)n1` : 13

* * *

Exercise: state measured kinase still bound, per cent of control for each of the molecules provided.
systemName: RIOK1 (human) (UniProt Q9BRS2)
Sequence (Q9BRS2 whole entry, looked up): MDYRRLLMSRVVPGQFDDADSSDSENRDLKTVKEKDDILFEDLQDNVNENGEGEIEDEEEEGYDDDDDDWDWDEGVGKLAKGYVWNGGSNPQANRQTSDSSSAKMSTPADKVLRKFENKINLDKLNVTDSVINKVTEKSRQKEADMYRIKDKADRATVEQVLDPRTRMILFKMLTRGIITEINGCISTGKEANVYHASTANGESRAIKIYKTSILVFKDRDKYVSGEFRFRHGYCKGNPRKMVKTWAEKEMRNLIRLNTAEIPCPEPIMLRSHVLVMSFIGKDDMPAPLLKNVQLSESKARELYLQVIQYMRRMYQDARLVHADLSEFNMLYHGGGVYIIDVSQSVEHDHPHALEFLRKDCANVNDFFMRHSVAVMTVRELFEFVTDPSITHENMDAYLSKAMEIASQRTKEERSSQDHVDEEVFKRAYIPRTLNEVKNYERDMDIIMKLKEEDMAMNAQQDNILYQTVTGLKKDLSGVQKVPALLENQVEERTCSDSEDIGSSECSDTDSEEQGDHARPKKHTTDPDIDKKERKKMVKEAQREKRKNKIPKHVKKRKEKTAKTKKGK
procedureDetails: KINOMEscan competition binding
condition: compound 1.0 µM
Answers are plain numbers, in %.

1. Cc1cc(NC(=O)c2cccc(NC(=O)/C=C/CN(C)C)c2)ccc1Nc1nccc(-c2cccnc2)n1 100
2. CN(C)C/C=C/C(=O)Nc1cccc(C(=O)Nc2ccc(Nc3nccc(-c4c(-c5ccccc5)nn5ccccc45)n3)cc2)c1 100

The following molecules each have a reported value; give each one's kinase still bound, per cent of control.
1. CN(C)C/C=C/C(=O)Nc1cccc(C(=O)Nc2ccc(Nc3nccc(-c4cccnc4)n3)cc2)c1
2. CN(C)C/C=C/C(=O)Nc1cccc(C(=O)Nc2ccc(Nc3nccc(/C(C#N)=C4\Nc5ccccc5S4)n3)cc2)c1

Found:
1: 15; 2: 14

* * *

Exercise: state measured kinase still bound, per cent of control for each of the molecules provided.
systemName: PIK3C2G (human) (UniProt O75747)
Sequence (O75747 whole entry, looked up): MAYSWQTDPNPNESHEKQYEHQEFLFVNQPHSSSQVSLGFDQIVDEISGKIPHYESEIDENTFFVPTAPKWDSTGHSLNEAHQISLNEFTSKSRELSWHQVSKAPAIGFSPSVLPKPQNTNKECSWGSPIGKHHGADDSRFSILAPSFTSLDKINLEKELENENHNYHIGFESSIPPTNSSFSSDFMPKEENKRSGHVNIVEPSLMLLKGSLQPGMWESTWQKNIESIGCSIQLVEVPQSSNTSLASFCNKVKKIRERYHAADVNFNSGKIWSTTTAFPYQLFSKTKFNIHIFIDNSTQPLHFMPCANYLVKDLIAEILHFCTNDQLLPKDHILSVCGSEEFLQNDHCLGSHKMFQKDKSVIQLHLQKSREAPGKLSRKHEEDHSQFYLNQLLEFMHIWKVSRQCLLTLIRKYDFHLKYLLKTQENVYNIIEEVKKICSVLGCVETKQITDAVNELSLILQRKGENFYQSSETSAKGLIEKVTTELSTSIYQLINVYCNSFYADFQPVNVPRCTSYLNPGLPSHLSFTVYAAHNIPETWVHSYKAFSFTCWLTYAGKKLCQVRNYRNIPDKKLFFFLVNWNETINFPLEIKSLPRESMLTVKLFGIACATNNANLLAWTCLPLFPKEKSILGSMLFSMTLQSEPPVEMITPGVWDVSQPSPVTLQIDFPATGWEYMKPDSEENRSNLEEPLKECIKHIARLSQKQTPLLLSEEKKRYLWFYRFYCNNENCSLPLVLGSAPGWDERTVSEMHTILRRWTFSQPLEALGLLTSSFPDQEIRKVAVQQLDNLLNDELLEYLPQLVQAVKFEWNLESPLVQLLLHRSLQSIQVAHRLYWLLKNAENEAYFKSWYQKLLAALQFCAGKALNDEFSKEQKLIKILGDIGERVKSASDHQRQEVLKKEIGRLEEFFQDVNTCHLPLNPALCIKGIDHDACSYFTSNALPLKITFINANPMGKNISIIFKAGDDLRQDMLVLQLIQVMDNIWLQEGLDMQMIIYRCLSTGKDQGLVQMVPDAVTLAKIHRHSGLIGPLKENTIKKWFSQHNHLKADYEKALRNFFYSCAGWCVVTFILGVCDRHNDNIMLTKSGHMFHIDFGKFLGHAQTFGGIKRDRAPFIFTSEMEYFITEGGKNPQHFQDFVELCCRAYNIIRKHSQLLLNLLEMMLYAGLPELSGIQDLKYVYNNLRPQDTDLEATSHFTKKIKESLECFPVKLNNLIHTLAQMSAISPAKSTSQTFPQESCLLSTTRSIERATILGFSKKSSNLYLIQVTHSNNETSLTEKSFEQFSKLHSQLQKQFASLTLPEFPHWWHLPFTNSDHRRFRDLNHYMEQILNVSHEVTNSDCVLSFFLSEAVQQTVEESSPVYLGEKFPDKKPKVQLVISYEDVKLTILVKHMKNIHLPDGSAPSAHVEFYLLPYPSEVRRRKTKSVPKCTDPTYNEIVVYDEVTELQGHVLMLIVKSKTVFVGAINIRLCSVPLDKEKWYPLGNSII
procedureDetails: KINOMEscan competition binding
condition: compound 1.0 µM
Report as: number unit

Here is how some molecules turned out for kinase still bound, per cent of control.
1) CN(C)C/C=C/C(=O)Nc1cccc(C(=O)Nc2ccc(Nc3nccc(-c4c(-c5ccccc5)nn5ccccc45)n3)cc2)c1 100%
2) CN(C)C/C=C/C(=O)Nc1cccc(C(=O)Nc2ccc(Nc3nccc(-c4cccnc4)n3)cc2)c1 100%
3) Cc1cc(NC(=O)c2cccc(NC(=O)/C=C/CN(C)C)c2)ccc1Nc1nccc(-c2cccnc2)n1 81%

# ---- query molecule ----
// recorded kinase still bound, per cent of control for `CN(C)C/C=C/C(=O)Nc1cccc(C(=O)Nc2ccc(Nc3nccc(/C(C#N)=C4\Nc5ccccc5S4)n3)cc2)c1` : 100%

* * *

systemName: EPHB4 (human)
procedureDetails: KINOMEscan competition binding
condition: compound 1.0 µM
property: kinase still bound, per cent of control (%)
Answers are plain numbers, in %.

Here is how some compounds turned out for kinase still bound, per cent of control.
1) CN(C)C/C=C/C(=O)Nc1cccc(C(=O)Nc2ccc(Nc3nccc(/C(C#N)=C4\Nc5ccccc5S4)n3)cc2)c1 100
2) CN(C)C/C=C/C(=O)Nc1cccc(C(=O)Nc2ccc(Nc3nccc(-c4cccnc4)n3)cc2)c1 100
3) CN(C)C/C=C/C(=O)Nc1cccc(C(=O)Nc2ccc(Nc3nccc(-c4c(-c5ccccc5)nn5ccccc45)n3)cc2)c1 43

# ---- query compound ----
// recorded kinase still bound, per cent of control for `Cc1cc(NC(=O)c2cccc(NC(=O)/C=C/CN(C)C)c2)ccc1Nc1nccc(-c2cccnc2)n1` : 100

* * *

System: EGFR (human), P00533 [746-750 del]
procedureDetails: KINOMEscan competition binding
condition: compound 1.0 µM
Exercise: state measured kinase still bound, per cent of control for each of the compounds provided.
One number for each entry, in %.

Here is how some compounds turned out for kinase still bound, per cent of control.
1) CN(C)C/C=C/C(=O)Nc1cccc(C(=O)Nc2ccc(Nc3nccc(-c4c(-c5ccccc5)nn5ccccc45)n3)cc2)c1 0
2) CN(C)C/C=C/C(=O)Nc1cccc(C(=O)Nc2ccc(Nc3nccc(-c4cccnc4)n3)cc2)c1 88

The following compounds each have a reported value; give each one's kinase still bound, per cent of control.
1. CN(C)C/C=C/C(=O)Nc1cccc(C(=O)Nc2ccc(Nc3nccc(/C(C#N)=C4\Nc5ccccc5S4)n3)cc2)c1
2. Cc1cc(NC(=O)c2cccc(NC(=O)/C=C/CN(C)C)c2)ccc1Nc1nccc(-c2cccnc2)n1

Found:
[72, 90]
